Some molecules, each annotated with its measured inhibition.
Biological target: Serine/threonine-protein kinase D2 (Homo sapiens) (UniProt Q9BZL6);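 note: mean value of PRKD2 inhibition, from the GSK PKIS screening panel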
Sequence (whole entry): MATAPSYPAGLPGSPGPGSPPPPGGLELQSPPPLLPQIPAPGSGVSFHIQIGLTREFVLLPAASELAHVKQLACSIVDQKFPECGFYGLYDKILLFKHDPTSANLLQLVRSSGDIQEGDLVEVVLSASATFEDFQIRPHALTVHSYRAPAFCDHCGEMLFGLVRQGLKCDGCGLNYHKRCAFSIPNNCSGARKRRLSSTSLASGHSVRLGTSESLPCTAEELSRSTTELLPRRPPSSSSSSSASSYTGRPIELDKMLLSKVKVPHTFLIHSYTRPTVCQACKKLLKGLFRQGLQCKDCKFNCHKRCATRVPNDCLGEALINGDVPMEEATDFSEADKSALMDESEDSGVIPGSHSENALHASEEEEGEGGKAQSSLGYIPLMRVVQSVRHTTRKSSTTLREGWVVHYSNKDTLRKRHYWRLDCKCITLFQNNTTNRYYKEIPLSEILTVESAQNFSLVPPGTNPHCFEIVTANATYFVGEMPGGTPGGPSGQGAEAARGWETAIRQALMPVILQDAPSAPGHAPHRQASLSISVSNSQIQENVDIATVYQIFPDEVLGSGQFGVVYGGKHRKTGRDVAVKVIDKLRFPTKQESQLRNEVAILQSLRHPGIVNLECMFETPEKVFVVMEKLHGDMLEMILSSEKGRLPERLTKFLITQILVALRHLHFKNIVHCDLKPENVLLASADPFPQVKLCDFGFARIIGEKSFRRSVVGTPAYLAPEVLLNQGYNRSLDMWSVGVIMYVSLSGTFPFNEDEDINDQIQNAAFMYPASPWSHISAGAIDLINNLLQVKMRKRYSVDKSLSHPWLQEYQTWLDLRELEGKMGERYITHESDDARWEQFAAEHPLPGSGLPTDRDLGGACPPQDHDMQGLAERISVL
Conditions: at 1 µM
measure-name: inhibition (%)

- Cc1ccc(NC(=O)c2ccoc2)cc1-c1ccc(C(=O)NCC2CC2)cc1: 3.55
- O=C(NCC1CC1)c1ccc(-c2cccc(C(=O)NC3CC3)c2)cc1: 2.14
- NCc1ccc(-n2c(-c3nonc3N)nc3cnccc32)cc1: 41.3
- CN(C)CCCNc1nccc(-c2c(-c3ccc(F)cc3)nn3cc(C(F)(F)F)ccc23)n1: 0.34
- CN(c1ccc(NC(=O)Nc2c(Cl)cccc2Cl)cc1)c1ccnc(Nc2cccc(CS(C)(=O)=O)c2)n1: 2
- CCc1nccc2c1nc(-c1nonc1N)n2CC: 3.17
- CN(C)CCOc1ccc(-c2cc(-c3ccc4c(c3)CCC4=NO)c(-c3ccncc3)o2)cc1: 1.9
- O=C(Nc1ccc(Oc2ccc3[nH]c(NC(=O)c4ccccc4)nc3c2)cc1)Nc1cc(C(F)(F)F)ccc1F: 4.25
- CN1CCN(CCCNc2nc3ccc(Oc4ccc(NC(=O)Nc5cc(C(F)(F)F)ccc5F)cc4)cc3[nH]2)CC1: -0.73
- Fc1ccc(-c2ncn(C3CCNCC3)c2-c2ccnc(Oc3ccc(F)c(F)c3)n2)cc1: 3.98
- COc1cc(N2CCN(C(C)C)CC2)ccc1Nc1nc(Nc2ccc(F)cc2C(=O)NC[C@@H](O)CO)c2cc[nH]c2n1: 17.5
- CN(C)c1ccc2c(c1)/C(=C/Nc1ccc(S(N)(=O)=O)cc1)C(=O)N2: 5.28
- CCc1ccc(Oc2nccc(-c3c(-c4ccc(F)cc4)ncn3C3CCNCC3)n2)cc1: 13.7
- COc1ccc(C2=C(N3CCc4ccccc43)C(=O)NC2=O)cc1: 7.9
- CCN(CC)Cc1ccc(Nc2nccc(-c3cnn4ncccc34)n2)cc1: 64.4
- NC(=O)c1cc(-c2ccncc2)cc(-c2ccccc2)c1N: 5.63
- Cc1nnc(-c2ccc(C)c(-c3ccc(C(=O)NCc4ccc(Cl)cc4)cc3)c2)o1: -0.8
- Fc1ccc(-c2ncn(CCCN3CCOCC3)c2-c2ccncc2)cc1: 3.09
- COc1cc(Nc2ncc(-c3ccccc3)o2)cc(OC)c1OC: -0.05
- COc1ccc(-c2ccc3c(NC(=O)C4CC4)n[nH]c3n2)cc1: 1.69

* * *

target: Dual specificity tyrosine-phosphorylation-regulated kinase 2 (Homo sapiens); conditions: at 1 µM;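 note: reported values are means of DYRK2 inhibition from screening the GSK PKIS collection at 1 µM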
measure-name: inhibition (%)

• O=C(NCC1CC1)c1ccc(-c2cccc(C(=O)NC3CC3)c2)cc1 = 3.38
• O=C(Nc1n[nH]c2nc(-c3ccc(O)cc3)c(Br)cc12)C1CC1 = 53.3
• N#Cc1ccc(Oc2nccc(-c3c(-c4ccc(F)cc4)ncn3C3CCNCC3)n2)cc1 = 2.24
• C[C@@H](Oc1cc(-n2cnc3ccc(OCC4CCN(C)CC4)cc32)sc1C(N)=O)c1ccccc1Cl = 9.72
• COc1cc(C)c(N(C)C(=O)CN(C)C)cc1Nc1nc(Nc2cccc(F)c2C(N)=O)c2cc[nH]c2n1 = 1.64
• CCS(=O)(=O)c1ccc(OC)c(Nc2ncc(-c3ccccc3Cl)o2)c1 = 11.8
• COc1cc(Nc2ncc(-c3ccccc3)o2)cc(OC)c1OC = -1.69
• C[C@@H](Oc1cc(-n2cnc3ccc(OC4CCN(C)CC4)cc32)sc1C(N)=O)c1ccccc1Cl = 7.45
• COc1cc(Nc2ncc3c(C)nc(-c4cccc(C(F)(F)F)c4)n3n2)cc(OC)c1OC = 3.63
• NS(=O)(=O)c1ccc(N/N=C2\C(=O)Nc3ccc(-c4cnco4)cc32)cc1 = 52
• Fc1ccc(-c2c(-c3ccncc3)nc3n2CCS3)cc1 = 1.86
• COc1cc(Nc2ncc3c(C)nc(-c4cccc(Oc5ccccc5)c4)n3n2)cc(OC)c1OC = 1.95
• COc1cc(N2CCN(C(C)C)CC2)ccc1Nc1nc(Nc2ccc(F)cc2C(=O)NC[C@@H](O)CO)c2cc[nH]c2n1 = 5.79
• CN(c1ccc(NC(=O)Nc2c(Cl)cccc2Cl)cc1)c1ccnc(Nc2cccc(CS(C)(=O)=O)c2)n1 = 1.29
• CCS(=O)(=O)c1ccc(OC)c(Nc2ncc(-c3cccc(-c4ccccc4F)c3)o2)c1 = 10.3
• Nc1nccc(-c2c(-c3ccc(F)cc3)ncn2C2CCC(O)CC2)n1 (stereo not given) = -2.78
• NS(=O)(=O)c1ccc(N/N=C2\C(=O)Nc3ccc(C(=O)NCCCn4ccnc4)cc32)cc1 = 16.2
• C#Cc1cccc(Nc2ncnc3ccc(OCCCCNCCS(C)(=O)=O)cc23)c1 = 7.08
• NC(=O)c1cc(-c2ccc(F)cc2)cc(-c2ccncc2)c1N = 5.04
• O=C1Nc2ccccc2/C1=C/Nc1ccc(-n2cncn2)cc1 = 6.8
• Cc1ccc(NC(=O)c2ccoc2)cc1-c1ccc(C(=O)NCC2CC2)cc1 = 0.34
• COc1ccc2ncn(-c3cc(O[C@H](C)c4ccccc4Cl)c(C(N)=O)s3)c2c1 = 2.75
• Fc1ccc(-c2nc3n(c2-c2ccncc2)CCS3)cc1 = 2.31
• O=C1Nc2ccc(I)cc2C1=Cc1cc(Br)c(O)c(Br)c1 = 8.06
• COc1cc2ncn(-c3cc(OCCc4ccccc4)c(C(N)=O)s3)c2cc1OC = 4.14
• CN(C)c1ccc2c(c1)/C(=C/Nc1ccc(S(N)(=O)=O)cc1)C(=O)N2 = 4.74
• CN(C)CCCNc1nccc(-c2c(-c3ccc(F)cc3)nn3cc(C(F)(F)F)ccc23)n1 = 2.09
• Fc1ccc(-c2ncn(CCCN3CCOCC3)c2-c2ccncc2)cc1 = 0.55
• COc1ccc(-c2ccc3c(NC(=O)C4CC4)n[nH]c3n2)cc1 = 2.63
• CN(C)CCOc1ccc(-c2cc(-c3ccc4c(c3)CCC4=NO)c(-c3ccncc3)o2)cc1 = -2.61
• Cc1ccc(C(=O)NC2CCC2)cc1-c1ccc(C(=O)NCC2CC2)cc1 = 3.3
• NC(=O)c1ccc(Oc2nccc(-c3c(-c4ccc(F)cc4)ncn3C3CCNCC3)n2)cc1 = 9.4
• CNC(=O)c1cncc(/C=C/c2c(C)cccc2C)c1 = -0.61
• COc1cccc(/C=N/Nc2ncnc3c2cnn3-c2cccc(OC)c2)c1 = 6.04
• CS(=O)(=O)CCNCc1cc(-c2cc3c(Nc4ccc(OCc5cccc(F)c5)c(Cl)c4)ncnc3s2)cs1 = 8.37

* * *

Some compounds, each annotated with its measured inhibition.
biological target: Serine/threonine-protein kinase PAK 6 (Homo sapiens) (UniProt Q9NQU5); details: at 1 µM;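 note: values are mean percent inhibition of PAK6 kinase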
Sequence (Q9NQU5 whole entry, looked up): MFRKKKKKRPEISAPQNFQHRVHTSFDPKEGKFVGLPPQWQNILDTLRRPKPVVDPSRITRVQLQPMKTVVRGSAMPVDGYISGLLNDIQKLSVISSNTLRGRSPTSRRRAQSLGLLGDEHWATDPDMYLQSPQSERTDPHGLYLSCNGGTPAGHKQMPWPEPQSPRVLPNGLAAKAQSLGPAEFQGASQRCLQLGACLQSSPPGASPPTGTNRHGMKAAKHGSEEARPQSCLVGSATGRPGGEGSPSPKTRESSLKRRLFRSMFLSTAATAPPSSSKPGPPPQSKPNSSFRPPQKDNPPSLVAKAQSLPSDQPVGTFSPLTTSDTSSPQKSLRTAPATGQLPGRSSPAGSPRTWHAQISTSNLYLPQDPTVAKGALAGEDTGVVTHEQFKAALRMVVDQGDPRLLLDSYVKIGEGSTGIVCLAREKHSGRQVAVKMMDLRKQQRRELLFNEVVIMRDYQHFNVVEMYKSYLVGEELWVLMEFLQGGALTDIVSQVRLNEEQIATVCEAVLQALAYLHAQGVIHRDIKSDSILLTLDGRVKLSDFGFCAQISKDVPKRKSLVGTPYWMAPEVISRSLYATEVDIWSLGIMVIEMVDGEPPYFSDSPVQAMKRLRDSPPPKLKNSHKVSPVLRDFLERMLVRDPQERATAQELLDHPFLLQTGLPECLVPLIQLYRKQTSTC
measure-name: inhibition (%)

- CCC(=O)Nc1ccc(C)c(-c2ccc(C(=O)NCC3CC3)cc2)c1: -9.47
- O=C(Nc1n[nH]c2cc(-c3ccccc3)ccc12)C1CC1: -4.61
- NCc1ccc(-n2c(-c3nonc3N)nc3cnccc32)cc1: -0.18
- COc1ccc2ncn(-c3cc(O[C@H](C)c4ccccc4Cl)c(C(N)=O)s3)c2c1: 1.83
- N#Cc1ccc(Oc2nccc(-c3c(-c4ccc(F)cc4)ncn3C3CCNCC3)n2)cc1: -7.23

* * *

target: Rhodopsin kinase GRK7 (Homo sapiens); conditions: at 1 µM;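 note: mean percent inhibition of GRK7, profiled as part of the GSK PKIS screen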
Some compounds, each annotated with its measured inhibition.
measure-name: inhibition (%)

• O=C1NC(=O)C(c2cccc(Cl)c2)=C1Nc1ccc(Cl)c(C(=O)O)c1 = 9.31
• COc1cc(N2CCN(C(C)C)CC2)ccc1Nc1nc(Nc2ccc(F)cc2C(=O)NC[C@@H](O)CO)c2cc[nH]c2n1 = 13.3
• C/C(Nc1ccc(S(N)(=O)=O)cc1)=C1/C(=O)Nc2ccccc21 = 2.76
• COC(=O)Nc1nc2ccc(Sc3ccc(NC(=O)Nc4cc(C(F)(F)F)ccc4F)cc3)cc2[nH]1 = -6.83
• Fc1ccc(-c2ncn(C3CCNCC3)c2-c2ccnc(Oc3ccc4c(c3)OCO4)n2)cc1 = 2.9
• CN(C)c1ccc2c(c1)/C(=C/Nc1ccc(S(N)(=O)=O)cc1)C(=O)N2 = 8.73
• COc1cc(Nc2ncc(-c3ccccc3)o2)cc(OC)c1OC = -9.33
• FC(F)(F)c1cccc(Nc2nccc(-c3cnn4nc(-c5ccccc5)ccc34)n2)c1 = 6.07
• Fc1ccc(-c2c(-c3ccncc3)nc3n2CCS3)cc1 = 7.9
• NC(=O)c1cc(-c2ccncc2)cc(-c2ccccc2)c1N = 9.17
• Fc1ccc(-c2ncn(C3CCNCC3)c2-c2ccnc(Oc3ccc(F)c(F)c3)n2)cc1 = 1.73
• CCc1cccc(CC)c1/C=C/c1cncc(C(=O)NC)c1 = -8.54
• NC(=O)Cc1ccccc1Oc1nccc(-c2c(-c3ccc(F)cc3)ncn2C2CCNCC2)n1 = 1.09
• Nc1nccc(-c2c(-c3ccc(F)cc3)ncn2C2CCC(O)CC2)n1 (stereo not given) = -1.89
• CCc1nccc2c1nc(-c1nonc1N)n2CC = 2.78
• CN(C)CCCNc1nccc(-c2c(-c3ccc(F)cc3)nn3cc(C(F)(F)F)ccc23)n1 = -5.64
• NC(=O)c1ccc(Oc2nccc(-c3c(-c4ccc(F)cc4)ncn3C3CCNCC3)n2)cc1 = 2.41
• CN(C)CCOc1ccc(-c2cc(-c3ccc4c(c3)CCC4=NO)c(-c3ccncc3)o2)cc1 = -5.7
• C#Cc1cccc(Nc2ncnc3ccc(OCCCCNCCS(C)(=O)=O)cc23)c1 = 8.97
• CCN(CC)Cc1ccc(Nc2nccc(-c3cnn4ncccc34)n2)cc1 = 3.71
• c1ccc(-c2n[nH]cc2-c2ccnc(-c3ccc(OCCN4CCOCC4)cc3)c2)nc1 = -0.22
• COc1cc(Nc2ncc3c(C)nc(-c4cccc(C(F)(F)F)c4)n3n2)cc(OC)c1OC = 6.59
• O=C(Nc1ccc(Oc2ccc3[nH]c(NC(=O)c4ccccc4)nc3c2)cc1)Nc1cc(C(F)(F)F)ccc1F = -2.78
• COc1cc(Nc2ncc3c(C)nc(-c4cccc(Oc5ccccc5)c4)n3n2)cc(OC)c1OC = -5.43
• Cc1ccc(C(=O)NC2CCC2)cc1-c1ccc(C(=O)NCC2CC2)cc1 = 3.16
• COc1ccc(C2=C(N3CCc4ccccc43)C(=O)NC2=O)cc1 = 20.3
• CCC(=O)Nc1ccc(C)c(-c2ccc(C(=O)NCC3CC3)cc2)c1 = 1.14
• COc1cc2ncn(-c3cc(OCc4cccs4)c(C(N)=O)s3)c2cc1OC = 13
• O=C1Nc2ccccc2/C1=C/Nc1ccc(-n2cncn2)cc1 = 14.9
• COc1cc(C)c(N(C)C(=O)CN(C)C)cc1Nc1nc(Nc2cccc(F)c2C(N)=O)c2cc[nH]c2n1 = -6.16
• Cc1ccc(C(=O)NC(C)C)cc1-c1ccc(C(=O)NCC2CC2)cc1 = -7.32
• CS(=O)(=O)CCNCc1ccc(-c2ccc3ncnc(Nc4ccc(OCc5ccccc5)c(Br)c4)c3c2)o1 = 0.45
• NS(=O)(=O)c1ccc(N/N=C2\C(=O)Nc3ccc(C(=O)NCCCn4ccnc4)cc32)cc1 = 18
• COc1cccc(/C=N/Nc2ncnc3c2cnn3-c2cccc(OC)c2)c1 = 5.51
• Fc1ccc(-c2ncn(CCCN3CCOCC3)c2-c2ccncc2)cc1 = 3.1
